- test_system: neuraminidase of wild type B/Malaysia/2506/04 virus (influenza B virus B/Malaysia/2506/04)
IC50 (read off the curve) values by entry

{"columns": ["binder", "IC50 (read off the curve), µg/mL"],
 "data": [
  ["monoclonal antibody 1F4 (hybridoma-produced, murine IgG2a) (antibody, V domains shown) VH: QVHLQQSGSELRSPGSSVKLSCKDFDSEVFPIVYMRWIRQKPGHGFEWIGDILPSFGRTIYGEKFEDKATLDADTVSNTAYLELNSLTSEDSAIYYCARGDHGNWLAYWGQGTLVTVSA VL: DIVMTQSHKFMSTSVGDRVTITCKASQDVSTNVAWYQQKPGQSPKLLIYWASTRHTGVPNRFTGIISGTDYTLTISSVQAEDRALYYCQQHYSAPWTFGGGTKLEIK", 4],
  ["1F2 Fab (Fab, V domains shown) VH: QVHLQQSGPEVARPGASVKLSCKASGYTFTDYYLNWVKQRPRQGLEWIGQIHPGSTNTYYNEKFKGKATLTADKSSSTAYMQLSSLTFEDSAVYFCAISLGDGYYVYAMVCWGQGTAVTVSS VL: DIVMTQSQKFMSTSVGDRVSVTCKASQNVVTNVVWYQQKPGQSPKPLIYSASYRYSGVPDRFTGSGSGTDFTLTISNVQSEDLAEYCCQQYHSYPFTFGSGTKLEVK", 3],
  ["monoclonal antibody 3G1 (hybridoma-produced, murine IgG2a) (antibody, V domains shown) VH: QVQLQQSGAELMKPGASVKISCKATGYKFTSYWIGWVKQRPGHGLEWCGEIFPGSGSINYNEKFKGKATFTADTSSNTAYLQLTSLTSEDSAVYYCARGEDYYGSSYGAMDYWGQGTSLTVSS VL: DVQITQSPSYLAASPGETITINCRASKSISKYVAWYQEKPGRTNKVLIYSGSILSFGNPSRFSGSGSGTDFTLTISSLEPEDFAMYYCQQHNEYPWTFGGGTKLEIK", 3],
  ["monoclonal antibody 1F2 (hybridoma-produced, murine IgG2a) (antibody, V domains shown) VH: QVHLQQSGPEVARPGASVKLSCKASGYTFTDYYLNWVKQRPRQGLEWIGQIHPGSTNTYYNEKFKGKATLTADKSSSTAYMQLSSLTFEDSAVYFCAISLGDGYYVYAMVCWGQGTAVTVSS VL: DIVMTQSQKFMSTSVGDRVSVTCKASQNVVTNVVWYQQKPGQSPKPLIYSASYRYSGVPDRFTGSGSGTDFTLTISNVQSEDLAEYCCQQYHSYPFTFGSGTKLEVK", 2]
]}

Cited source: patent US20220363736A1
